# credit: ChEMBL document CHEMBL5335821

System: Hepatitis C virus
Assay: Antiviral activity against HCV infected in human Huh-7 cells assessed as reduction in viral replication
Format: functional, organism-based, Hepacivirus hominis
Kindly supply the reported pEC50 values for the records listed here.
Quick note: pEC50 means taking -log10 of the concentration in moles per liter.

Q) So what pEC50 did "COc1ccc2cc3[n+](cc2c1OC)CCc1cc2c(cc1-3)OCO2" get with Hepatitis C virus?
A) 5.10

Q) // same read-out, input: "C[C@H]1O[C@@H](O[C@H]2CC[C@@]3(C)[C@@H](CC[C@]4(C)[C@@H]3C=CC3=C5CC(C)(C)CC[C@]5(CO)[C@H](O)C[C@]34C)[C@]2(C)CO)[C@H](O)[C@@H](O[C@@H]2O[C@H](CO)[C@@H](O)[C@H](O)[C@H]2O)[C@H]1O"
A) 4.68

Q) Then this compound: COc1c(NC(=O)C(=O)c2ccc(OCCN3CCOCC3)c3ccccc23)cc(C(C)(C)C)cc1NS(C)(=O)=O [ITX-5061 FREE BASE]
A) 10.00
